The values you see were collected from patent US20180273635A1.

# Measurement Target: T1, HER2 expressed on the surface of cells (human, UniProt P04626 23-1255)
# T1 construct: whole, on cells; also called ErbB2
# Protocol Description: flow cytometry on BT474 cells, n=1; B50 = concentration at 50% of Bmax
Recorded B50 for the following binders
Write the value in nM as a bare number.

Variant 14022 (antibody, name in Kabat numbering, V domains shown, also called v14022) VH: EVQLVESGGGLVQPGGSLRLSCAASGFTFQDYTMDWVRQAPGKGLEWVGDVNPNSGGSIYNQRFKGRFTFSVDRSKNTLYLQMNSLRAEDTAVYYCARNLGPWFYFDYWGQGTLVTVSS VL: DIQMTQSPSSLSASVGDRVTITCKASQDVSIGVAWYQQKPGKAPKLLIWSASYRYTGVPSRFSGSGSGTDFTLTISSLQPEDFATYYCQQYYIYPYTFGQGTKVEIKR
3

In plain terms, Variant 14018 (antibody, name in Kabat numbering, V domains shown, also called v14018) VH: EVQLVESGGGLVQPGGSLRLSCAASGFTFTDYTMDWVRQAPGKGLEWVGDVNPNSGGSIYNQRFKGRFTFSVDRSWNTLYLQMNSLRAEDTAVYYCARNLGPSFYFDYWGQGTLVTVSS VL: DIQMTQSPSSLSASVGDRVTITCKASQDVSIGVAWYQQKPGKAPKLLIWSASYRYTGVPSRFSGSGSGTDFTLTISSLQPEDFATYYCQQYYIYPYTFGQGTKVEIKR has a documented B50 of 2.4
